Quick list: melting point per entry.

COC(=O)[C@H]1C[C@H](NC(=O)Nc2ccc(I)cc2)c2c(Cl)cc(Cl)cc2N1 (relative stereo)    253 to 255 °C
Cc1ccc(N(c2ccc(C)cc2)c2ccc(C=Cc3ccccc3O)cc2)cc1    136 to 138 °C
COc1ccc(COC/C(=C/c2ccc(C(=O)O)cc2)Cn2ccnc2)cc1    120 to 122 °C
N=C(Nc1ccc2[nH]cc(C3CCN(C(=N)c4cccs4)CC3)c2c1)c1cccs1    115 to 117 °C
Nc1cc(C(=O)NC2CC2)n[nH]1    > 246 °C

Report melting point for `COC(=O)c1ccc(NN)c(Cl)c1` please.
120 °C

Report melting point for `Nc1cc(Sc2cccc3cnccc23)c(F)cc1[N+](=O)[O-]` please.
217 to 220 °C

Report melting point for CC(C)(C)C(=O)CN1C(=O)C(NC(=O)Nc2cccc(C(=O)O)c2)CN(C(=O)C(C)(C)C)c2ccccc21 (stereo not given) please.
231 to 233 °C

Report melting point for `CC(C)(C)c1cc(-c2c[nH]c(CNC(=O)OCc3ccccc3)n2)cc(C(C)(C)C)c1O` please.
212 to 213 °C

Report melting point for `CN(C)CCCCCNC(=O)c1ccc(-c2nnc(CSCCOc3ccccc3)o2)cc1` please.
83 to 89 °C
